These data points were gathered from PubChem BioAssay.

- Protocol summary: small-molecule microarray binders of probe aXIP, primary screen, biochemical, NeuroSMM set, 635/667 nm fluorescence (AID 1119);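 further: probe is the protein aXip251-270 applied at 1 µg/mL to compound-printed slides; binding of probe to printed compounds measured as 667 nm fluorescence plus signal to noise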
- Assay setup: higher = more signal, called active from +8 up or from −8 down
compounds and their reported composite Z-score
Field format: numeric only.

In [3]: df
Out[3]:
                                   compound  test_result
0  COC(=O)[C@H](C)NC(=O)CCC1CC(OC(=O)NCCc2ccc(F)cc2)CC2(CCCC(COC(=O)NCCOc3ccccc3)O2)O1 (stereo not given in full)         0.59
1           CON=C(C)CCN1CCCCc2nc(C)c(C)cc21        0.414
2  COCC#Cc1ccc([C@@H]2N[C@H](C(=O)O)CC[C@H]2C)cc1       -0.165
3  CCO[C@H](c1cc(OC)cc([N+](=O)[O-])c1OC)[C@H](C)[C@@H](OC)[C@H](C)C=CCC(=O)OC        0.179

Next compound, composite Z-score to be filled in.
Measured composite Z-score, `Cc1ccc2[nH]c3nc(CCCn4ccnc4-c4ccccc4)nnc3c2c1` : -0.375

###

compounds and their reported z-score
- Protocol summary: modulators of S6 phosphorylation in cells, primary screen, cell-based, A549, cytoblot, luminescence, serum-stimulated (AID 1158);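 further: serum-stimulated A549 lung adenocarcinoma cells; signal is phosphorylated S6 detected by cytoblot immunostaining with HRP secondary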
- Assay setup: A549 phospho-S6 cytoblot, 5 h, higher = more signal
Field format: numeric only.

Measured z-score, `CC(=O)OC[C@H]1O[C@H](CC=NOCC[C@@H]2C=C[C@H](OC(C)=O)[C@@H](COC(C)=O)O2)C=C[C@@H]1OC(C)=O` : -0.696

###

- Protocol summary: E. coli growth modulation, two-sided OD650, primary screen, E. coli filamentation project, strain DRC41, 24 h (AID 1093);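 further: MC1000 strain lacking acrAB efflux and sulA so SOS filamentation is blocked; test concentration not given here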
- Assay setup: OD650, 24 h, higher = more signal, called active from +8 up or from −8 down
Each entry gets not met if its z-score stays under -0.4, and met if its z-score is -0.4 or above.

In [3]: df
Out[3]:
                                   compound  category_label
0  CC=CC1=C(CO)[C@H](O)[C@H]2O[C@H]2[C@@H]1O             met
1  CC(CCN1CCCCc2nc(C)c(C)cc21)=NO[C@@H](C)c1cc(-c2c(C)cc(C)cc2C)no1             met

stdin: Form field: z-score at least -0.4? Entry: COC(=O)[C@H](C)NC(=O)CCC1CC(OC(=O)NCCc2ccc(F)cc2)CC2(CCCC(COC(=O)NCc3ccccc3)O2)O1 (stereo partly specified)
stdout: not met

stdin: Form field: z-score at least -0.4? Entry: `CC(C)CON=C1C[C@@H](O)[C@@H](O)[C@@H]2[C@@H]3C(=O)N(Cc4ccc5c(c4)OCO5)C(=O)[C@@H]3CC[C@@H]12`
stdout: met

stdin: Form field: z-score at least -0.4? Entry: `CCCC[C@H]1CN2[C@@H](CC[C@@H](C)[C@@H]2c2ccc(Br)cc2)C(=O)O1`
stdout: met

###

compounds and their reported composite z-score
- Measured on: Follistatin-related protein 3 (Homo sapiens) (UniProt O95633)
- Sequence (O95633 whole entry, looked up): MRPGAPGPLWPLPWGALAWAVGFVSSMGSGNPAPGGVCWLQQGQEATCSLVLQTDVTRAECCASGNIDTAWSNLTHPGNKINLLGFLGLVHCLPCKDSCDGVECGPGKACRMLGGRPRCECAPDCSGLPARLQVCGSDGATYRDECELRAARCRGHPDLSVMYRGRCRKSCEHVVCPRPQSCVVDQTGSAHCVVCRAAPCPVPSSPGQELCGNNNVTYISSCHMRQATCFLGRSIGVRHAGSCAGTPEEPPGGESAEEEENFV
- Protocol summary: FSTL3 binders on small-molecule microarrays, primary screen, biochemical, small-molecule microarray, 635 nm fluorescence (AID 1105);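 further: score merges emission near 667 nm and signal to noise per printed spot across three slides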
- Assay setup: FSTL3 binding, higher = more signal
Field format: numeric only.

// known answers, use as guide
In [3]: df
Out[3]:
                                   compound  test_result
0  COc1ccc(O[C@H]2C=C[C@@H](c3ccccc3)O[C@@H]2CON=C(C)CCN2CCCc3nc(C)c(C)cc32)cc1        0.616
1  O=C(NN=C1C[C@@H](O)[C@@H](O)[C@@H]2[C@@H]3C(=O)N(Cc4ccccc4)C(=O)[C@@H]3CC[C@H]12)OCc1ccccc1        0.315
2  CC(C)=NOC(C)CN1CCCc2nc(C)c(C)cc21 (centres undefined)         1.16
3           CON=C(C)CCN1CCCCc2nc(C)c(C)cc21        0.507
4  CC1(C)O[C@H]2OC([C@H](O)CON3C(=O)c4ccccc4C3=O)[C@H](O)[C@H]2O1 (some centres undefined)        0.205
5  CC(C)(C)N1C(=O)[C@H]2[C@H]3[C@H](O)[C@H](O)CC(=NNC(=O)OCc4ccccc4)[C@H]3CC[C@H]2C1=O        0.889
6  COC(OC)[C@@H](C)[C@H](OC)[C@@H](C)[C@H](OC)c1ccccc1        0.327
7  COc1ccc(OC[C@@H]2CC3[C@@H](c4ccc(Br)cc4)[C@H](C)CC[C@H]3C(=O)O2)cc1 (some centres undefined)        0.354

Next compound, composite z-score to be filled in.
Measured composite z-score, `CC(C)C(=O)N[C@H]1CCCN1C(=O)C=Cc1ccccc1` : 0.722

###

- Protocol summary: small-molecule microarray binders of probe aDKK1, primary screen, biochemical, biotinylated probe, 635/667 nm fluorescence (AID 1099);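 further: score merges 667nm spot fluorescence with signal to noise across triplicate slides; reference of the scale not given here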
- Assay setup: higher = more signal
Measured property: composite z-score
Field format: numeric only.

In [3]: df
Out[3]:
                                   compound  test_result
0  CCOC(=O)CCN1C(=O)[C@H]2[C@@H]3C(=CC[C@H]2C1=O)C(=O)[C@H]1O[C@H]1[C@H]3O        -0.33
1  CC(=O)OC[C@H]1O[C@H](CCON=C(C)C)C=C[C@@H]1OC(C)=O        -0.22
2  COC(=O)CC=C[C@@H](C)[C@@H](C=NOC[C@@H](O)COCc1ccco1)NS(=O)(=O)c1ccc(C)cc1        -0.87
3  O=C1C2=CC[C@H]3C(=O)N(C4CCCCC4)C(=O)[C@H]3[C@H]2[C@H](O)[C@@H]2O[C@H]12       -0.121
4  CO[C@H]1COC(=O)CCC[C@H](C)[C@H](OC)COC(=O)CC=C[C@@H]1C       -0.427
5  CCOC(=O)CCN1C(=O)[C@H]2[C@H]3[C@H](O)[C@H](O)CC(=O)[C@@H]3CC[C@H]2C1=O      -0.0674

Measured composite z-score, `CCCNC(=O)OC[C@H]1O[C@H](CCON=C[C@@H](NS(=O)(=O)c2ccc(C)cc2)[C@H](C)C=CCC(=O)OC)C=C[C@@H]1Oc1ccc(OC)cc1` : -0.0175

Measured composite z-score, C[C@H]1CC[C@H]2C(=O)OC(COc3ccc(C(C)(C)C)cc3)CN2[C@@H]1c1ccc(Br)cc1 (stereo not given in full) : -0.254

Measured composite z-score, `CO[C@@H]1[C@H](O)CO[C@H]1C=Cc1ccccc1` : -0.261

Measured composite z-score, COC(=O)[C@H](C)NC(=O)CCC1CC(OC(=O)NCCc2ccc(F)cc2)CC2(CCCC(COC(=O)NCCOc3ccccc3)O2)O1 (stereo not given in full) : -0.244

Measured composite z-score, `COC(=O)[C@@H]1CC[C@H](C)[C@@H](c2ccc(Br)cc2)N1C[C@H](O)CN=[N+]=[N-]` : -0.234

Measured composite z-score, `O=C1[C@H]2[C@H]3[C@H](O)[C@H](O)CC(=NO[C@@H]4O[C@H](CO)[C@@H](O)[C@H](O)[C@H]4O)[C@@H]3CC[C@H]2C(=O)N1C[C@@H]1CCCO1` : -0.29

###

- Protocol summary: adipocyte viability effects, profiling panel, cell-based, 3T3-L1 adipocytes, calcein-AM fluorescence, 48 h, basal (AID 1163); further: test concentration not given here
- Assay setup: 3T3-L1 adipocytes viability, higher = more signal
Measured property: z-score
Field format: numeric only.

In [3]: df
Out[3]:
                                   compound  measured_property  test_result
0  C#CCCCON=C1[C@H]2CCn3c(=O)n([C@@H](CC)c4ccccc4)c(=O)n3[C@H]2[C@H](O)[C@@H]2O[C@H]12            z-score         0.44
1  CCOC(=O)[C@H](Cc1ccccc1)NC(=O)CCC1CC(OC(=O)NCc2cccc3ccccc23)CC2(CCCC(COC(=O)NCCOc3ccccc3)O2)O1 (some centres not stated)            z-score       0.0331
2  O=C1C[C@@H](O)[C@@H](O)[C@@H]2[C@@H]3C(=O)N(C4CCCCC4)C(=O)[C@@H]3CC[C@@H]12            z-score       0.0679
3  C#CCCCON=C1C[C@@H](O)[C@@H](O)[C@@H]2[C@@H]3C(=O)N(CC)C(=O)[C@@H]3CC[C@H]12            z-score       -0.751
4  COC(=O)[C@@H]1CC[C@H](C)[C@@H](c2ccc(C)cc2)N1C(=O)c1ccc(C=NOC[C@H]2O[C@H](c3ccccc3)C=C[C@@H]2Oc2ccc(OC)cc2)cc1            z-score        -0.36
5  CO[C@@H]1COC(=O)[C@@H]2CCCN2C(=O)[C@@H](C)COC(=O)CCC[C@H]1C            z-score      -0.0132

Next compound, z-score to be filled in.
Measured z-score, `CO[C@@H]1COC(=O)CC=C[C@H](C)[C@H](OC)COC(=O)[C@@H]2CCCN2C(=O)CC=C[C@H]1C` : 0.846
